test.protocol: Human HepG2 cell viability assay in 384 well format
Type: toxicity, cell-based
Parameters: dose 125 nL, time 70.5 hour; concentration not given beside the values
details: HepG2 cells, read-out: Inhibition
measured.parameter: cytotoxicity at 70.5 h (%)
// note: answer is a bare numeric in %

[
  {
    "molecule": "CC(C)(C)NCC(=O)N1CCCC(n2ccnc2)C1 (stereo unspecified)",
    "cytotoxicity at 70.5 h [%]": -9.3
  },
  {
    "molecule": "CN1CCN(C(=O)c2n[nH]c3c2CN(C2CCOCC2)CC3)CC1",
    "cytotoxicity at 70.5 h [%]": -10.2
  },
  {
    "molecule": "CCN(CC)Cc1cc(=O)n2c(n1)CN(S(=O)(=O)C1CC1)CCC2",
    "cytotoxicity at 70.5 h [%]": -7.27
  },
  {
    "molecule": "COc1cccc(OC2CN(C(=O)c3ccoc3C)C2)c1",
    "cytotoxicity at 70.5 h [%]": 10.7
  },
  {
    "molecule": "Cc1nnc([C@@]23CCO[C@@H]2CCN(S(C)(=O)=O)C3)o1",
    "cytotoxicity at 70.5 h [%]": -0.978
  },
  {
    "molecule": "Cn1ccc2ccc(C(=O)N3CCN(C(=O)OC(C)(C)C)CC3)cc21",
    "cytotoxicity at 70.5 h [%]": 3.39
  }
]

Look at this molecule and give its reported cytotoxicity at 70.5 h. `Cc1cc(C(=O)N(C)Cc2cccs2)nc(N2CCCCC2)n1` -6.38

Please give the measured cytotoxicity at 70.5 h for this molecule: `CCOC(=O)c1sc(NC(=O)C(C)C)c(C#N)c1C` -5.23

Using the record for `O=C(COCC(=O)N(c1ccccc1)c1ccccc1)N1CCCC1` , report its cytotoxicity at 70.5 h. -3.7

Given the entry `Cn1cc(C(=O)NCc2cn3c(n2)CN(CC2CCOCC2)CC3)cn1` , report its measured cytotoxicity at 70.5 h. -1.1

# input molecule: CC(C(=O)NCCOc1ccccc1)n1cncn1 (stereo unspecified) ; wanted: its cytotoxicity at 70.5 h -12.5
